Protocol Summary: AUC (0 to 24 hrs) in C57BL/6J mouse at 10 umol/kg, po
Assay type: ADME, organism-based
Design: time < 24 hr, dose 10 umol/kg, route oral
Condition Parameters: plasma
Observation Type: AUC(0-t) at 24 h (µM·h)
Give the value, in units of µM·h, as a plain number.

Dear colleague, I am looking for the recorded AUC(0-t) at 24 h of the following compound: "CC(C)c1nc2c(c3c1[C@@H](c1ccc(C(F)(F)F)cc1)OC31CCOCC1)[C@@H](O)CC(C)(C)C2"
4.9

* * *

Protocol Summary: Drug concentration in liver of hemizygous human CETP transgenic mouse at 3 mg/kg, po dosed for 5 consecutive days measured on day 21 after cessation of drug treatment
Assay type: ADME, organism-based
Set-up: dose 3 mg/kg, route oral
Condition Parameters: read-out: Drug uptake
Observation Type: concentration at 21 days after cessation of treatment

Dear colleague, I am looking for the recorded concentration at 21 days after cessation of treatment of the following molecule: "CC(C)c1nc2c(c3c1[C@@H](c1ccc(C(F)(F)F)cc1)OC31CCOCC1)[C@@H](O)CC(C)(C)C2"
< 0.03 µM

* * *

Protocol Summary: Drug concentration in testes of hemizygous human CETP transgenic mouse at 3 mg/kg, po dosed for 5 consecutive days measured on day 21 after cessation of drug treatment
Assay type: ADME, organism-based, Testis
Parameters: dose 3 mg/kg, route oral
Condition Parameters: male, read-out: Drug uptake
Observation Type: concentration at 21 days after cessation of treatment

Dear colleague, I am looking for the recorded concentration at 21 days after cessation of treatment of the following compound: "CC(C)c1nc2c(c3c1[C@@H](c1ccc(C(F)(F)F)cc1)OC31CCOCC1)[C@@H](O)CC(C)(C)C2"
< 30 nM

* * *

Provide the reported half-life of each item.
Protocol Summary: Terminal elimination half life in healthy human administered as single oral dose
Assay type: ADME, organism-based
Condition Parameters: in vivo, read-out: beta t1/2 (converted)
Give the value, in units of h, as a plain number.

Dear colleague, I am looking for the recorded half-life of the following compound: "COc1cc(F)c(C(C)C)cc1-c1ccc(C(F)(F)F)cc1CN1C(=O)O[C@H](c2cc(C(F)(F)F)cc(C(F)(F)F)c2)[C@@H]1C"
83

Dear colleague, I am looking for the recorded half-life of the following compound: "CCOC(=O)N1c2ccc(C(F)(F)F)cc2[C@@H](N(Cc2cc(C(F)(F)F)cc(C(F)(F)F)c2)C(=O)OC)C[C@H]1CC"
221

Dear colleague, I am looking for the recorded half-life of the following compound: "Cc1cc(C)c2c(c1)[C@@H](N(Cc1cc(C(F)(F)F)cc(C(F)(F)F)c1)c1nnn(C)n1)CCCN2C[C@H]1CC[C@H](C(=O)O)CC1"
44

* * *

Target System: Cholesteryl ester transfer protein (Homo sapiens, UniProt P11597)
Sequence (P11597 whole entry): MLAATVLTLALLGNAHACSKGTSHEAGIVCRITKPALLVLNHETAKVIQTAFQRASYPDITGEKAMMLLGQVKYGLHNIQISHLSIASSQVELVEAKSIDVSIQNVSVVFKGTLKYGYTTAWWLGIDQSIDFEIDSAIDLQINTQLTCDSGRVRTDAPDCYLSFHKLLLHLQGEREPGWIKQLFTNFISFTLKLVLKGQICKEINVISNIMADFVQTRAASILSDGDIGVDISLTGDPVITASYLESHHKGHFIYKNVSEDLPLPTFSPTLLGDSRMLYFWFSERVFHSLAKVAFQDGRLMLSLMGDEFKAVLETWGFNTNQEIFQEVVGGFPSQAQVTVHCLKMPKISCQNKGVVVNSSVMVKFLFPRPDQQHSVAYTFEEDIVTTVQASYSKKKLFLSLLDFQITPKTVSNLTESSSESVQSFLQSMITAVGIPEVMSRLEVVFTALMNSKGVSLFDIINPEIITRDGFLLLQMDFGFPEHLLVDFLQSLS
Protocol Summary: Inhibition of human recombinant CETP in presence of 88% human plasma by fluorescence transfer assay
Observation Type: pIC50
Please report pIC50 as the negative decimal logarithm of the molar concentration, giving only the number.

Dear colleague, I am looking for the recorded pIC50 of the following compound: "CC(C)c1nc2c(c3c1[C@@H](c1ccc(C(F)(F)F)cc1)OC31CCOCC1)[C@@H](O)CC(C)(C)C2"
6.82

* * *

Provide the reported concentration of each item.
Tested on: Plasma
Protocol Summary: Plasma concentration in hemizygous human CETP transgenic mouse at 10 mg/kg, po dosed for 5 consecutive days measured on day 5 and day 7 post dose
Assay type: ADME, organism-based
Parameters: dose 10 mg/kg, route oral
Condition Parameters: in vivo
Give the value, in units of nM, as a plain number.

Dear colleague, I am looking for the recorded concentration of the following molecule: "CC(C)c1nc2c(c3c1[C@@H](c1ccc(C(F)(F)F)cc1)OC31CCOCC1)[C@@H](O)CC(C)(C)C2"
671

Dear colleague, I am looking for the recorded concentration of the following molecule: COc1cc(F)c(C(C)C)cc1-c1ccc(C(F)(F)F)cc1CN1C(=O)O[C@H](c2cc(C(F)(F)F)cc(C(F)(F)F)c2)[C@@H]1C [ANACETRAPIB]
507

* * *

Protocol Summary: Clearance in C57BL/6J mouse at 1 umol/kg, iv
Type: ADME, organism-based
Condition Parameters: in vivo
Observation Type: clearance (mL/min/kg)
Give the value, in units of mL/min/kg, as a plain number.

Dear colleague, I am looking for the recorded clearance of the following compound: "CC(C)c1nc2c(c3c1[C@@H](c1ccc(C(F)(F)F)cc1)OC31CCOCC1)[C@@H](O)CC(C)(C)C2"
16

* * *

Protocol Summary: Mean residence time in cynomolgus monkey up to 100 mg/kg
Format: ADME, organism-based, Macaca fascicularis
Design: dose 100 mg/kg
Condition Parameters: in vivo
Observation Type: MRT

Dear colleague, I am looking for the recorded MRT of the following molecule: "CC(C)c1nc2c(c3c1[C@@H](c1ccc(C(F)(F)F)cc1)OC31CCOCC1)[C@@H](O)CC(C)(C)C2"
> 20 h

* * *

Protocol Summary: Volume of distribution at steady state in C57BL/6J mouse at 1 umol/kg, iv
Assay type: ADME, organism-based
Condition Parameters: in vivo, read-out: Vdss
Observation Type: Vd (L/kg)
Give the value, in units of L/kg, as a plain number.

Dear colleague, I am looking for the recorded Vd of the following compound: "CC(C)c1nc2c(c3c1[C@@H](c1ccc(C(F)(F)F)cc1)OC31CCOCC1)[C@@H](O)CC(C)(C)C2"
5.9

Hello, the source for this data is ChEMBL document CHEMBL3351249, in case you need it.
